# System: UniProtKB P11712
# Sequence (P11712 whole entry): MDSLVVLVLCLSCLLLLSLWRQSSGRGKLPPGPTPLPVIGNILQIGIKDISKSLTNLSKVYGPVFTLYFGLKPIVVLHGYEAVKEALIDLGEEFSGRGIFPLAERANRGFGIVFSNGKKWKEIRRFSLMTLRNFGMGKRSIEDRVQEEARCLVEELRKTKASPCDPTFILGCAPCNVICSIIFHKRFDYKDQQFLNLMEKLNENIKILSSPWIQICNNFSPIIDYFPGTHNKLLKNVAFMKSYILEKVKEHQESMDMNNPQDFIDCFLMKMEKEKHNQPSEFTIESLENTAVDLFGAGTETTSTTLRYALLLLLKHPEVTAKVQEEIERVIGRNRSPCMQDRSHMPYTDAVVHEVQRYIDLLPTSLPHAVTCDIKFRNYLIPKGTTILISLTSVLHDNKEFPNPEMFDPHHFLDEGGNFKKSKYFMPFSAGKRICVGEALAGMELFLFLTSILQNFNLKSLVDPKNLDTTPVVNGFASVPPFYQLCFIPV
Test Readout: pIC50
Remember the convention: pIC50 equals -log10 of concentration in molar.

Q: So what does the record say about pIC50 for CC(=O)[O][Pt]([NH2])([NH2])([Cl])([Cl])[O]C(=O)NCCCCCN1C(=O)C=CC1=O [Compound 8] ?
Ans: 6.02

====

# Test Name: Single dose intravenous dose range-finding toxicity study in male rats (Compound 8-TX-001)
# Type: in vivo
# Applied Conditions: male, rat, in vivo, iv, single IV dose, male rats, N=3 per group; read-out: MTD and STD10
Test Readout: MTD (mg/kg)
Answer format: numeric, mg/kg implied, no suffix.

Q: So what does the record say about MTD for CC(=O)[O][Pt]([NH2])([NH2])([Cl])([Cl])[O]C(=O)NCCCCCN1C(=O)C=CC1=O ?
Ans: 19

Where these numbers come from: patent US20190350940A1
